molecular target: T1, recombinant human CD3 epsilon/delta heterodimer (human, UniProt P07766 23-126; P04234 22-105); experiment: Octet BLI, mAb on FAB2G sensor, hCD3 E/D 200-50 nM; R^2 0.99
T1 construct: Recombinant protein in solution (200-50 nM) in the Octet assay; also called hCD3 E/D; human CD3E/D
T1 sequence (P07766 23-126, stated change not applied, chain 1 of 2): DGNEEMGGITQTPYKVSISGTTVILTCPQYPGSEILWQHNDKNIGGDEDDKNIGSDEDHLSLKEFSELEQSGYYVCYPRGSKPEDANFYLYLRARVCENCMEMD
T1 sequence (P04234 22-105, stated change not applied, chain 2 of 2): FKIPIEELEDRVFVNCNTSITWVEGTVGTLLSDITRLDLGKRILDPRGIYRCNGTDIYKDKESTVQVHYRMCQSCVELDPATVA
OBSERVATION TYPE: Response
Give the value as a plain number.

binder="ABL-CD3-28 (antibody, V domains shown, Chimeric hybridoma mAb: human V, CH1, upper hinge; mouse middle hinge, CH2, CH3) VH: QVQLQQSGPGLVKPSQTLSLTCAISGDSVSSNSVAWNWIRQSPSRGLEWLGRTYYRSKWYNECAGSVKSRITINPDTSKNQFSLQLNSVTPEDTAIYYCARERKWELFLDYWGQGTLVTVSS VL: NFMLTQPHSVSESPGKTVTISCTRSSGSIASNYVQWYQQRPGSSPTTVIYEDNQRPSGVPDRFSGSIDSSSNSASLTISGLKTEDEADYYCQSFDSSNVVFGGGTKLTVL" endpoint_value=0.77
binder="ABL-CD3-15 (antibody, V domains shown, Chimeric hybridoma mAb: human V, CH1, upper hinge; mouse middle hinge, CH2, CH3) VH: EVQLVESGGGLVKPGGSLRLSCAASGFNCSSYSMNWVRQAPGKGLEWVSSISRSSNYIYYADSVKGRFSISRDDAKNSLYLQMNSLRAEDTAVYYCARERWIQLYSDYWGQGILVTVSS VL: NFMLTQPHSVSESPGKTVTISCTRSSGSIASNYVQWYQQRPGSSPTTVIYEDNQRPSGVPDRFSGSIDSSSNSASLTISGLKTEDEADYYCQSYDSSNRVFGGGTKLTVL" endpoint_value=0.93

Now examine the next entry.
Request: Annotate the binder ABL-CD3-43 (antibody, V domains shown, Chimeric hybridoma mAb: human V, CH1, upper hinge; mouse middle hinge, CH2, CH3) VH: EVQLVQSGAEVKKPGESLKISCKGSEYSFTTYWIAWVRQMPGKGLEWMGIIYPGDSDTTYSPSFQGQVTISADKSISIAFLQWSSLKASDTAMYYCARQGELDAFDIWGQGTMVTVSS VL: QSALTQPASVSGSPGQSITISCTGTSSDVGSYNLVSWYQQHPGKAPKLMIYEDIRRPSGVSNRFSASKSGDTASLTISGLQAEDEADYYCCSYAGSTTFAIFGGGTKLTVL with its measured Response.
Result: 0.62
